Sourced from patent EP4786466A1

# Test system: pENSA
# MEASUREMENT_NOTES: pENSA level by immunofluorescence (described method: in vitro kinase analysis with GST-tag-MASTL and His-tag-ENSA)
# Type: cell-based
# PARTICULARS: read-out: IC50(nM) pENSA
Structures can show the parent of a compound that is named as a salt.
Classify: 1 when IC50 is strictly less than 500 nM; 0 when IC50 is not.

COMPOUND	TARGET_UNDER_TEST	ASSIGNED_LABEL
NC(=O)c1ccc(Nc2nc(Nc3cc(C4CC4)[nH]n3)c3ccccc3n2)cc1	pENSA	1
O=C(Nc1ccc(F)cc1)N1CCN(c2nc(Nc3cc(C4CC4)[nH]n3)c3ccccc3n2)CC1 [compound 12d]	pENSA	0
N#CCc1ccc(Nc2nc(Nc3cc(C4CC4)[nH]n3)c3ccccc3n2)cc1	pENSA	1
OCCNc1nc(Nc2cc(C3CC3)[nH]n2)c2ccccc2n1 [compound 4cf, hydrochloride]	pENSA	1

IC50 under 500 nM? Item: NS(=O)(=O)c1ccc(Nc2nc(Nc3cc(C4CC4)[nH]n3)c3ccccc3n2)cc1
1

Dear reviewer, please state whether c1ccc2c(Nc3cc(C4CC4)[nH]n3)nc(N3CC4CCC(C3)N4)nc2c1 has IC50 strictly beneath 500 nM.
0

# strict comparison: is reported IC50 < 500 nM? input = CNCc1ccc(-c2nc(Nc3cc(C4CC4)[nH]n3)c3ccccc3n2)cc1
0

In the record for O=C(O)c1ccc(Nc2nc(Nc3cc(C4CC4)[nH]n3)c3ccccc3n2)cc1 , is IC50 less than 500 nM?
0

Strictly below 500 nM: is that where IC50 of c1ccc2c(Nc3cc(C4CC4)[nH]n3)nc(N3CCC4(CC3)OCCO4)nc2c1 sits?
0
